Value source: PubChem BioAssay AID1259407

Tested on: CCRIS mutagenicity, Ames/micronucleus/aberration tests
Assay: CCRIS mutagenicity studies
Settings: Test System: AMES SALMONELLA TYPHIMURIUM; Strain/Indicator: TA100; Metabolic Activation: NONE; Method: STANDARD PLATE
Calls of active or inactive are those of the source. How the calls were made is not given here.
reported metric: mutagenic call

* C/C(=C(/OCCOc1ccc(Cl)cc1)c1ccc(Cl)cc1Cl)n1ccnc1 | inactive; negative
* C(CCC1CO1)CC1CO1 (configuration not stated) | active; positive
* CC(C)OS(C)(=O)=O | active; positive
* OC[C@@H](O)[C@@H](O)CO | inactive; negative
* Cn1c([N+](=O)[O-])cnc1C(O)c1cc(C(C)(C)C)cc(C(C)(C)C)c1O (configuration not stated) | inactive; negative
* Nc1ccc(Oc2ccc(N)cc2)cc1 | inactive; negative
* Oc1c(Cl)ccc(Cl)c1Cl | inactive; negative
* O=C1OC(O)C(C(Br)Br)=C1Cl (configuration not stated) | active; positive
* COP(=S)(OC)Oc1ccc([N+](=O)[O-])c(C)c1 | inactive; negative
* CC(=O)C(C)=O | active; positive
* CCCN(CCC)N=O | inactive; negative
* Cc1c(C)c2c(c(C)c1O)CC[C@@](C)(CCC[C@H](C)CCC[C@H](C)CCCC(C)C)O2 | inactive; negative
* O=C(c1ccccc1)C1OC1c1ccccc1 (configuration not stated) | active; positive
* CC(=O)OCc1c2cccc3ccc4cc5cccc6ccc1c(c65)c4c32 | inactive; negative
* O=c1c(Cl)c(Cl)cnn1S(=O)(=O)c1ccc([N+](=O)[O-])cc1 | active; positive
* CN(C)CCNS(=O)(=O)c1cccc2cccnc12 | inactive; negative
* Oc1ccc(Cl)cc1 | inactive; negative
* Cc1ccc(C)c2c1[nH]c1ccccc12 | inactive; negative
* CC/C(C)=N\O | inactive; negative
* CC(O)CN1CC(C)OC1=O (configuration not stated) | inactive; negative
* CCCCC(=O)Nc1snc2ccc(Cl)cc12 | inactive; negative
* O=[N+]([O-])c1cccc2c1ccc1cccc([N+](=O)[O-])c12 | active; positive
